Test system: lymphoid leukemia L1210
Experiment: Intraperitoneal (IP) lymphoid leukemia L1210 transplanted mouse tumor test
Assay type: in vivo, murine
Settings: L1210 system, Q4D and QD1-9 schedules
measured quantity: antitumor activity

molecule="CCOC(=O)NC1=C(N2CC2C)C(=O)C(NC(=O)OCC)=C(N2CC2C)C1=O (stereo not shown)" observed_measurement="abolished activity"
molecule=CCOC(=O)NC1=C(N2CC2(C)C)C(=O)C(NC(=O)OCC)=C(N2CC2(C)C)C1=O observed_measurement="abolished activity"
molecule=CC(=O)NC1=C(N2CC2(C)C)C(=O)C(NC(C)=O)=C(N2CC2(C)C)C1=O observed_measurement="abolished activity"

---

Test system: P388 lymphocytic leukemia
Assay: Intraperitoneal (IP) lymphocytic leukemia P388 transplanted mouse tumor test
Format: in vivo, murine
Details: Table IX; IP P388, QD1-9
Use T when the recorded OD (optimum dose) is no lower than 2 mg/kg/injection; use F when it is lower.

Completed entries (count: 4):
compound=NC1=C(N2CC2)C(=O)C(N)=C(N2CC2)C1=O class=F
compound="O=C1C(NCC(O)CO)=C(N2CC2)C(=O)C(NCC(O)CO)=C1N1CC1 (stereo not drawn)" class=T
compound=O=C1C(NCCO)=C(N2CC2)C(=O)C(NCCO)=C1N1CC1 class=F
compound="O=C1C(N2CC2)=C(N2CCCC(O)C2)C(=O)C(N2CC2)=C1N1CCCC(O)C1 (stereo not drawn)" class=F

Query: Quick check, OD (optimum dose) >= 2 mg/kg/injection? `CCCNC1=C(N2CC2)C(=O)C(NCCC)=C(N2CC2)C1=O`
Response: T

---

Reported logP values follow for various compounds
Assay: Octanol/H2O partition coefficient (log P)
Format: physicochemical
Details: octanol/water; Table VII; octanol/H2O
Keep the answer to the number alone.

For record O=C1C(NCCO)=C(N2CC2)C(=O)C(NCCO)=C1N1CC1 [Compound 38] the listed logP is -1.48

Sample CN(CCO)C1=C(N2CC2)C(=O)C(N(C)CCO)=C(N2CC2)C1=O [Compound 42] ; logP observed: -0.38

According to the records, this compound O=C1C(N2CCN(CCO)CC2)=C(N2CC2)C(=O)C(N2CCN(CCO)CC2)=C1N1CC1 [Compound 47] displays logP of -0.75

---

Experiment: Room temperature water solubility
Assay type: physicochemical
Settings: water; approximate; read-out: aqueous solubility
measured quantity: solubility

Looking up `CCOC(=O)NC1=C(N2CC2)C(=O)C(NC(=O)OCC)=C(N2CC2)C1=O` , I found its solubility recorded as ~500 µg/mL

---

System: B16 melanocarcinoma
Test: Intraperitoneal B16 melanocarcinoma transplanted mouse tumor test
Type: in vivo, murine
Settings: Table XI; outstanding activity
Attribute: ILS (%) B16
# output: bare number, implied unit %

Past entries and their recorded results:
compound="O=C1C(NCC(O)CO)=C(N2CC2)C(=O)C(NCC(O)CO)=C1N1CC1 (stereo not shown)" target_or_system="B16 melanocarcinoma" measured_quantity="ILS (%) B16" observed_measurement=50
compound="CNC1=C(N2CC2C)C(=O)C(NC)=C(N2CC2C)C1=O (stereo not shown)" target_or_system="B16 melanocarcinoma" measured_quantity="ILS (%) B16" observed_measurement=70
compound=CCOC(=O)NC1=C(N2CC2)C(=O)C(NC(=O)OCC)=C(N2CC2)C1=O target_or_system="B16 melanocarcinoma" measured_quantity="ILS (%) B16" observed_measurement=70

Assay B16 melanocarcinoma, sample `O=C1C(NCCO)=C(N2CC2)C(=O)C(NCCO)=C1N1CC1` , ILS (%) B16 read: 61

---

System: B16 melanocarcinoma
Assay: Intraperitoneal B16 melanocarcinoma transplanted mouse tumor test
Assay type: in vivo, murine
Conditions: Table IX; B16, QD1-9
measured quantity: OD (optimum dose) (mg/kg/injection)
Use mg/kg/injection as the unit, but write only the number.

compound=O=C1C(NCCO)=C(N2CC2)C(=O)C(NCCO)=C1N1CC1 measured_quantity="OD (optimum dose)" observed_measurement=0.4
compound=CCCNC1=C(N2CC2)C(=O)C(NCCC)=C(N2CC2)C1=O measured_quantity="OD (optimum dose)" observed_measurement=5.0
compound="O=C1C(N2CC2)=C(N2CCCC(O)C2)C(=O)C(N2CC2)=C1N1CCCC(O)C1 (centres unmarked)" measured_quantity="OD (optimum dose)" observed_measurement=1.0
compound=O=C1C(N2CCCC2)=C(N2CC2)C(=O)C(N2CCCC2)=C1N1CC1 measured_quantity="OD (optimum dose)" observed_measurement=2.0

Value of OD (optimum dose) reported for the compound `CN(C)C1=C(N2CC2)C(=O)C(N(C)C)=C(N2CC2)C1=O` is 0.2

The compound identified as `CN(CCO)C1=C(N2CC2)C(=O)C(N(C)CCO)=C(N2CC2)C1=O` registered its OD (optimum dose) at 0.8

Sure, the documented OD (optimum dose) for `O=C1C(F)=C(N2CC2)C(=O)C(N2CCOCC2)=C1N1CC1` is 0.7

Form field OD (optimum dose), entry CNC1=C(N2CC2C)C(=O)C(NC)=C(N2CC2C)C1=O (centres unmarked) : 5.0

---

Tested on: ependymoblastoma
Assay: Intracerebral (IC) ependymoblastoma (EM) brain tumor test
Format: in vivo, murine
Details: Table XI; per 6 test animals, day 60
This listing pairs compounds with measured survivors (number in parentheses) EM.
Please reply with the value in numeric form only.

Example cases with answers are listed next.
compound=CCCNC1=C(N2CC2)C(=O)C(NCCC)=C(N2CC2)C1=O observed_measurement=2
compound=NC1=C(N2CC2)C(=O)C(N)=C(N2CC2)C1=O observed_measurement=6
compound=CCOC(=O)NC1=C(N2CC2)C(=O)C(NC(=O)OCC)=C(N2CC2)C1=O observed_measurement=5
compound=CNC1=C(N2CC2)C(=O)C(NC)=C(N2CC2)C1=O observed_measurement=5
compound=CCNC1=C(N2CC2)C(=O)C(NCC)=C(N2CC2)C1=O observed_measurement=2

Summary for this compound, `CN(C)C1=C(N2CC2)C(=O)C(N(C)C)=C(N2CC2)C1=O` : survivors (number in parentheses) EM is 5

Measured survivors (number in parentheses) EM of CNC1=C(N2CC2C)C(=O)C(NC)=C(N2CC2C)C1=O (stereo not shown) : 1

---

Assay: Room temperature water solubility
Assay type: physicochemical
Details: water; Table VII; room temperature, approximate; read-out: Approx. H2O Sol.
Description: In the following examples, all melting points are uncorrected and were recorded on a Thomas-Hoover capillary melting point apparatus. Elemental analyses were performed by NIAMDD, NIH, Bethesda, Maryland. […] Satisfactory elemental analyses (+0.4% of calculated values) are indicated by elemental symbols in Table VII. Room temperature water solubilities were determined by the incremental addition (pipet) of water to a weighed amount of compound with shaking. […]
Quick rule for you: solubility at 10000 µg/mL or higher means satisfied, lower means not satisfied.

Query: Is it the case that `O=C1C(NCCO)=C(N2CC2)C(=O)C(NCCO)=C1N1CC1` has solubility reaching or exceeding 10000 µg/mL?
Response: not satisfied

Query: Is reported solubility greater than or equal to 10000 µg/mL here: O=C1C(N2CC2)=C(N2CCCC(O)C2)C(=O)C(N2CC2)=C1N1CCCC(O)C1 (centres unmarked)
Response: not satisfied

---

System: lymphoid leukemia L1210
Assay: Intraperitoneal (IP) lymphoid leukemia L1210 transplanted mouse tumor test
Assay type: in vivo, murine
Details: Table VIII; IP L1210, QD1-9 (9 injections)
measured quantity: OD (optimum dose)
Put down the number, then write its unit next to it.

molecule=NC(=O)CNC1=C(N2CC2)C(=O)C(NCC(N)=O)=C(N2CC2)C1=O target_or_system="lymphoid leukemia L1210" observed_measurement="10.0 mg/kg/injection"
molecule=O=C1C(N2CCCC2)=C(N2CC2)C(=O)C(N2CCCC2)=C1N1CC1 target_or_system="lymphoid leukemia L1210" observed_measurement="2.0 mg/kg/injection"
molecule=CCCNC1=C(N2CC2)C(=O)C(NCCC)=C(N2CC2)C1=O target_or_system="lymphoid leukemia L1210" observed_measurement="6.2 mg/kg/injection"
molecule="CNC1=C(N2CC2C)C(=O)C(NC)=C(N2CC2C)C1=O (stereo not shown)" target_or_system="lymphoid leukemia L1210" observed_measurement="5.0 mg/kg/injection"
molecule=CN(CCO)C1=C(N2CC2)C(=O)C(N(C)CCO)=C(N2CC2)C1=O target_or_system="lymphoid leukemia L1210" observed_measurement="1.5 mg/kg/injection"

// field: OD (optimum dose); key: O=C1C(N2CC2)=C(N2CCCC(O)C2)C(=O)C(N2CC2)=C1N1CCCC(O)C1 (stereo not shown) ; value = 3.0 mg/kg/injection

Value of OD (optimum dose) reported for the molecule `O=C1C(N2CCCCC2)=C(N2CC2)C(=O)C(N2CCCCC2)=C1N1CC1` is 10.0 mg/kg/injection

---

Tested on: lymphoid leukemia L1210
Experiment: Intraperitoneal (IP) lymphoid leukemia L1210 transplanted mouse tumor test
Type: in vivo, murine
Conditions: Table VIII; IP L1210, Day 1 only (1 injection)
measured quantity: OD (optimum dose) (mg/kg/injection)
The response must be a number in mg/kg/injection with no trailing unit.

Recorded OD (optimum dose), per entry:
molecule_smiles=CCNC1=C(N2CC2)C(=O)C(NCC)=C(N2CC2)C1=O measured_quantity="OD (optimum dose)" display_unit=mg/kg/injection observed_measurement=1.5
molecule_smiles=O=C1C(N2CCN(CCO)CC2)=C(N2CC2)C(=O)C(N2CCN(CCO)CC2)=C1N1CC1 measured_quantity="OD (optimum dose)" display_unit=mg/kg/injection observed_measurement=4.0
molecule_smiles=CCCCNC1=C(N2CC2)C(=O)C(NCCCC)=C(N2CC2)C1=O measured_quantity="OD (optimum dose)" display_unit=mg/kg/injection observed_measurement=10.0
molecule_smiles=CNC1=C(N2CC2)C(=O)C(NC)=C(N2CC2)C1=O measured_quantity="OD (optimum dose)" display_unit=mg/kg/injection observed_measurement=0.7
molecule_smiles=CN(C)C1=C(N2CC2)C(=O)C(N(C)C)=C(N2CC2)C1=O measured_quantity="OD (optimum dose)" display_unit=mg/kg/injection observed_measurement=1.5

For reference, reported OD (optimum dose) for `NC(=O)CNC1=C(N2CC2)C(=O)C(NCC(N)=O)=C(N2CC2)C1=O` stands at 10.0

Value of OD (optimum dose) reported for the compound `O=C1C(NCCO)=C(N2CC2)C(=O)C(NCCO)=C1N1CC1` is 1.5
